molecular target: KDM5B (Homo sapiens); construct: purified recombinant KDM5B (produced in Sf9 insect cells, M1-R822); made in house; host or cells: Sf9 insect cells; experiment: KDM5B inhibition assay, MALDI-TOF-MS (IC50); assay type: biochemical
pIC50: −log10 of the molar value.
Property name: pIC50

compound="O=C(O)/C=C/C(=O)O [Fumarate]" recorded_measurement=3.68

====

molecular target: KDM5B (Homo sapiens, UniProt Q9UGL1); construct: purified recombinant KDM5B (produced in Sf9 insect cells, M1-R822); made in house; host or cells: Sf9 insect cells; assay: KDM5B inhibition assay, MALDI-TOF-MS (IC50); type: biochemical; conditions: read-out: IC50
We begin with a simple list: items and their reported IC50.
Property name: IC50 (µM)

compound="O=C(O)CC(O)(CC(=O)O)C(=O)O [Citrate]" readout_relation=> recorded_measurement=1000
compound="O=C(O)CC(=O)C(=O)O [Oxaloacetate]" readout_relation== recorded_measurement=15
compound="CC(=O)C(=O)O [Pyruvate, pyruvate]" readout_relation== recorded_measurement=703
compound="O=C(O)CCC(=O)O [Succinate, succinate]" readout_relation== recorded_measurement=62
compound="O=C(O)CC(O)C(=O)O (centres unmarked) [Malate, malate]" readout_relation== recorded_measurement=127

====

Target: KDM5B (Homo sapiens, UniProt Q9UGL1)
Construct: purified recombinant KDM5B (produced in Sf9 insect cells, M1-R822)
Sequence (Q9UGL1 1-822): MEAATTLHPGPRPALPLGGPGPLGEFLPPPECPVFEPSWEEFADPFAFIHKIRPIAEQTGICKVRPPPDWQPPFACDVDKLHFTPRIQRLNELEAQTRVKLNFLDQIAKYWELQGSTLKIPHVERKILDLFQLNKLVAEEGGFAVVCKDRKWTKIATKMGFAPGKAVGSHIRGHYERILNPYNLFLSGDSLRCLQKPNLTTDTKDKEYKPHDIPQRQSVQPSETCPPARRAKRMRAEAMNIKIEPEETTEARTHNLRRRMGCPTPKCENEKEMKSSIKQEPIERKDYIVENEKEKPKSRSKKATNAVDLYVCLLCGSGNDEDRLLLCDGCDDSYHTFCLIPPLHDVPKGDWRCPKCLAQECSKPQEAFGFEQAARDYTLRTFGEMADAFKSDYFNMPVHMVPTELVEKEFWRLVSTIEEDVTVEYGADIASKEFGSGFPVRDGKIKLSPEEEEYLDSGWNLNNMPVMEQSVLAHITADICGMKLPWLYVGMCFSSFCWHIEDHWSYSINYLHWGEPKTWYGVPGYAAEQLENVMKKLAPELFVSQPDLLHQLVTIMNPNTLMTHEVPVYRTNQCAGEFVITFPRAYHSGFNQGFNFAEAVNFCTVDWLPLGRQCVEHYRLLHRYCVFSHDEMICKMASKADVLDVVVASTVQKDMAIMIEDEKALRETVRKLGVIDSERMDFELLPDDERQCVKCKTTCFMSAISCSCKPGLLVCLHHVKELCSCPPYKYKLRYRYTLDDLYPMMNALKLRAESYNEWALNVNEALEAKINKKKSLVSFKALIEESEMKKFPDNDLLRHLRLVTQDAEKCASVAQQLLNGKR
Assay: KDM5B kinetic assays, MALDI-TOF-MS (Km, Ki with respect to 2OG)
Settings: competitive inhibition model, shared/global fit; read-out: Ki (best-fit value, GraphPad Prism global fit)
pKi: −log10 of the molar value.
Property name: pKi

molecule="O=C(O)CCC(=O)O [Succinate, succinate]" recorded_measurement=4.57

Each recorded value in this set is attributed to paper PMC5636616.
